# Assay info: Fraction unbound in human plasma
# Format: ADME, cell-free
Readout: fraction unbound
The answer should be written as a number, with no unit following it.

{"Compound": "O=C1c2cc(COc3ccccc3)nn2CCC1c1ccc(F)cc1 (stereo not drawn)", "fraction unbound": 0.008}
{"Compound": "CC1(C)CCn2nc(COc3ccccc3)cc2C1=O", "fraction unbound": 0.1}

Lab note: next compound to report on.
Q: Item under review: `O=C1CCCn2nc(COc3ccccc3)cc21` . Reported fraction unbound?
A: 0.23

* * *

Entries annotated with measured EC50
# Tgt: Metabotropic glutamate receptor 5 (Rattus norvegicus, UniProt P31424)
# Sequence (P31424 whole entry): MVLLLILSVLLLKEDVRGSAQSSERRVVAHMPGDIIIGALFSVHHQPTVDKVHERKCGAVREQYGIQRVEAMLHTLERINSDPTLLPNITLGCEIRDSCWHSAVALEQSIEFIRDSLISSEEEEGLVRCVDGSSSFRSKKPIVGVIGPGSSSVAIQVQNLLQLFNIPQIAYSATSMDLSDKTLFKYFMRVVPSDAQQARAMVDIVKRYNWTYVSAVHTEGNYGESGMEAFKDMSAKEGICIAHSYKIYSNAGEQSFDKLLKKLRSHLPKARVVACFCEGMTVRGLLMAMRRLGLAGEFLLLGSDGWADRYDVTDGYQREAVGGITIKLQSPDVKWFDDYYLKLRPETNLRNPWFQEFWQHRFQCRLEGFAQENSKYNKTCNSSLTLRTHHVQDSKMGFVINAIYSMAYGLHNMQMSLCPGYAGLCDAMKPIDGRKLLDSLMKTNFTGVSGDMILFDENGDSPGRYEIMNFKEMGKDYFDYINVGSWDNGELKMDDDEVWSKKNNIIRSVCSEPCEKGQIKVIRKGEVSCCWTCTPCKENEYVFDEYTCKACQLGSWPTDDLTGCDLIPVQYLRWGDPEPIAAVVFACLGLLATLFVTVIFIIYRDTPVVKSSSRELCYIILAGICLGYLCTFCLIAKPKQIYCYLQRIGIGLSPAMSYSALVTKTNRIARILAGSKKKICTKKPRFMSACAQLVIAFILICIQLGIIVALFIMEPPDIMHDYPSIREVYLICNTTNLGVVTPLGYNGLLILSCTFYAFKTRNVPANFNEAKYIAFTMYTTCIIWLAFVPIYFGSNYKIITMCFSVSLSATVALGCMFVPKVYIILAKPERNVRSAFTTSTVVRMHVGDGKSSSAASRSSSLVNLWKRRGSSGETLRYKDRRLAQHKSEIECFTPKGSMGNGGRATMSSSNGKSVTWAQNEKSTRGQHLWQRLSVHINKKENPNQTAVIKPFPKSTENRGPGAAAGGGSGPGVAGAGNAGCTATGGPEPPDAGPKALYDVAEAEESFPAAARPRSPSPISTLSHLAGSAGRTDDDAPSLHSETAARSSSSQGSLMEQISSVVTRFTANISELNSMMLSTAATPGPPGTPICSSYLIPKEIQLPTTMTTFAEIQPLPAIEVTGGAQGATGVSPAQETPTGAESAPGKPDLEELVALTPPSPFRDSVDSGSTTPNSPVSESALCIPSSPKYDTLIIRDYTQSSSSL
# Assay info: Positive allosteric modulation of rat mGlu5 receptor expressed in HEK293 cells
Numeric only. Scale: nM

{"Compound": "OC1CCCn2nc(COc3ccccc3)cc21 (configuration not stated)", "Tgt": "Metabotropic glutamate receptor 5 (Rattus norvegicus, UniProt P31424)", "Result units": "nM", "EC50": 2010}
{"Compound": "O=C1c2cc(COc3ccccc3)nn2CCC12CCCC2", "Tgt": "Metabotropic glutamate receptor 5 (Rattus norvegicus, UniProt P31424)", "Result units": "nM", "EC50": 48}
{"Compound": "c1ccc(OCc2cc3n(n2)CCCC3N2CCOCC2)cc1 (configuration not stated)", "Tgt": "Metabotropic glutamate receptor 5 (Rattus norvegicus, UniProt P31424)", "Result units": "nM", "EC50": 2360}
{"Compound": "CC1(c2ccc(F)cc2)CCn2nc(COc3ccccc3)cc2C1=O (configuration not stated)", "Tgt": "Metabotropic glutamate receptor 5 (Rattus norvegicus, UniProt P31424)", "Result units": "nM", "EC50": 228}
{"Compound": "COc1ccccc1C1CCn2nc(COc3ccccc3)cc2C1=O (configuration not stated)", "Tgt": "Metabotropic glutamate receptor 5 (Rattus norvegicus, UniProt P31424)", "Result units": "nM", "EC50": 43}

Q: Look up EC50 for this compound: O=C1c2cc(OCc3ccccc3)nn2CCC1c1ccc(F)cc1 (configuration not stated)
A: 95

Q: Next record, please: CC1CCn2nc(COc3ccccc3)cc2C1=O (configuration not stated)
A: 285

Q: // query: CC(C)N1CCN(C2CCCn3nc(COc4ccccc4)cc32)CC1 (configuration not stated)
A: 870

Q: Request: c1ccc(OCc2cc3n(n2)CCCC3OCC2CC2)cc1 (configuration not stated)
A: 2520

Q: # repeat for c1ccc(OCc2cc3n(n2)CCCC3NCc2cccnc2)cc1 (configuration not stated)
A: 2840

Q: Repeat for the following compound: COc1ccc(CNC2CCCn3nc(COc4ccccc4)cc32)cc1 (configuration not stated)
A: 290

Q: Next compound: Fc1ccc(CNC2CCCn3nc(COc4ccccc4)cc32)cc1 (configuration not stated)
A: 316

* * *

Entries and their measured Activity follow.
# Tgt: Metabotropic glutamate receptor 5 (Rattus norvegicus)
# Assay info: Positive allosteric modulation of rat mGlu5 receptor expressed in HEK293 cells relative to glutamate
# Format: cell-based
# Parameters: concentration or dose not given beside the values
# number only, unit % dropped from output

{"Compound": "Clc1ccc(CNC2CCCn3nc(COc4ccccc4)cc32)cc1 (stereo not given)", "Readout": "Activity", "Readout value": 65}
{"Compound": "c1ccc(OCc2cc3n(n2)CCCC3NC2CC2)cc1 (stereo not given)", "Readout": "Activity", "Readout value": 50}
{"Compound": "NC1CCCn2nc(COc3ccccc3)cc21 (stereo not given)", "Readout": "Activity", "Readout value": 45}
{"Compound": "CN(Cc1ccccc1)C1CCCn2nc(COc3ccccc3)cc21 (stereo not given)", "Readout": "Activity", "Readout value": 71}
{"Compound": "Fc1ccc(CNC2CCCn3nc(COc4ccccc4)cc32)cc1 (stereo not given)", "Readout": "Activity", "Readout value": 69}
{"Compound": "O=C1c2cc(COc3ccccc3)nn2CCC1Cc1ccccc1 (stereo not given)", "Readout": "Activity", "Readout value": 73}

Please turn your attention to the following entry.
Q: Need Activity of c1ccc(OCc2cc3n(n2)CCCC3NCc2cccnc2)cc1 (stereo not given) , thanks.
A: 59

* * *

# Assay info: Fraction unbound in rat plasma
# Assay type: ADME, cell-free
Readout: fraction unbound

{"Compound": "O=C1c2cc(COc3ccccc3)nn2CCC1c1ccc(F)cc1 (stereo not drawn)", "fraction unbound": 0.032}
{"Compound": "O=C1CCCn2nc(COc3ccccc3)cc21", "fraction unbound": 0.21}

Q: Could you tell me which fraction unbound is on file for `CC1(C)CCn2nc(COc3ccccc3)cc2C1=O` ?
A: 0.07

* * *

# log10 EC50 per record follows
# Tgt: Metabotropic glutamate receptor 5 (Rattus norvegicus)
# Assay info: Positive allosteric modulation of rat mGlu5 receptor expressed in HEK293 cells
Kindly note that the scale is log10 and the underlying EC50 is in nM.

{"Compound": "COc1ccccc1C1(C)CCn2nc(COc3ccccc3)cc2C1=O (configuration not stated)", "Tgt": "Metabotropic glutamate receptor 5 (Rattus norvegicus)", "Readout": "log10 EC50", "Readout value": 2.82}
{"Compound": "Clc1ccc(CNC2CCCn3nc(COc4ccccc4)cc32)cc1 (configuration not stated)", "Tgt": "Metabotropic glutamate receptor 5 (Rattus norvegicus)", "Readout": "log10 EC50", "Readout value": 2.80}
{"Compound": "CC1(C)CCn2nc(COc3ccccc3)cc2C1=O", "Tgt": "Metabotropic glutamate receptor 5 (Rattus norvegicus)", "Readout": "log10 EC50", "Readout value": 1.93}
{"Compound": "CC1CCn2nc(COc3ccccc3)cc2C1(C)O (configuration not stated)", "Tgt": "Metabotropic glutamate receptor 5 (Rattus norvegicus)", "Readout": "log10 EC50", "Readout value": 3.23}
{"Compound": "c1ccc(CNC2CCCn3nc(COc4ccccc4)cc32)cc1 (configuration not stated)", "Tgt": "Metabotropic glutamate receptor 5 (Rattus norvegicus)", "Readout": "log10 EC50", "Readout value": 2.80}
{"Compound": "c1ccc(NC2CCCn3nc(COc4ccccc4)cc32)cc1 (configuration not stated)", "Tgt": "Metabotropic glutamate receptor 5 (Rattus norvegicus)", "Readout": "log10 EC50", "Readout value": 2.43}
{"Compound": "CCCCC1(O)CCCn2nc(COc3ccccc3)cc21 (configuration not stated)", "Tgt": "Metabotropic glutamate receptor 5 (Rattus norvegicus)", "Readout": "log10 EC50", "Readout value": 3.26}
{"Compound": "O=C1c2cc(COc3ccccc3)nn2CCC1c1ccc(F)cc1 (configuration not stated)", "Tgt": "Metabotropic glutamate receptor 5 (Rattus norvegicus)", "Readout": "log10 EC50", "Readout value": 1.54}

Q: For the compound shown here, c1ccc(COC2CCCn3nc(COc4ccccc4)cc32)cc1 (configuration not stated) , give the reported log10 EC50.
A: 3.00

Q: Query CC1(C)CCn2nc(COc3ccccc3)cc2C1O (configuration not stated) next
A: 3.64

* * *

# Tgt: Metabotropic glutamate receptor 5 (Rattus norvegicus, UniProt P31424)
# Assay info: Positive allosteric modulation of rat mGlu5 receptor expressed in HEK293 cells
Readout: EC50 (nM)
Report only the number, with the unit nM understood.

// solved cases for EC50 follow
{"Molecule": "OC1(C(F)(F)F)CCCn2nc(COc3ccccc3)cc21 (stereo unspecified)", "Readout": "EC50", "Result units": "nM", "Readout value": 3780}
{"Molecule": "COC1CCCn2nc(COc3ccccc3)cc21 (stereo unspecified)", "Readout": "EC50", "Result units": "nM", "Readout value": 2910}
{"Molecule": "O=C1CCCc2nc(COc3ccccc3)sc21", "Readout": "EC50", "Result units": "nM", "Readout value": 441}
{"Molecule": "O=C1CCCn2nc(COc3ccccc3)cc21", "Readout": "EC50", "Result units": "nM", "Readout value": 129}
{"Molecule": "c1ccc(CNC2CCCn3nc(OCc4ccccc4)cc32)cc1 (stereo unspecified)", "Readout": "EC50", "Result units": "nM", "Readout value": 618}

Turning to the following molecule.
Q: Give the reported EC50 for CC1(C)CCn2nc(COc3ccccc3)cc2C1NCc1ccccc1 (stereo unspecified) (system: Metabotropic glutamate receptor 5 (Rattus norvegicus, UniProt P31424)).
A: 3620

* * *

pIC50 values, listed per item
# Tgt: Cytochrome P450 1A2 (Homo sapiens)
# Sequence (P05177 whole entry): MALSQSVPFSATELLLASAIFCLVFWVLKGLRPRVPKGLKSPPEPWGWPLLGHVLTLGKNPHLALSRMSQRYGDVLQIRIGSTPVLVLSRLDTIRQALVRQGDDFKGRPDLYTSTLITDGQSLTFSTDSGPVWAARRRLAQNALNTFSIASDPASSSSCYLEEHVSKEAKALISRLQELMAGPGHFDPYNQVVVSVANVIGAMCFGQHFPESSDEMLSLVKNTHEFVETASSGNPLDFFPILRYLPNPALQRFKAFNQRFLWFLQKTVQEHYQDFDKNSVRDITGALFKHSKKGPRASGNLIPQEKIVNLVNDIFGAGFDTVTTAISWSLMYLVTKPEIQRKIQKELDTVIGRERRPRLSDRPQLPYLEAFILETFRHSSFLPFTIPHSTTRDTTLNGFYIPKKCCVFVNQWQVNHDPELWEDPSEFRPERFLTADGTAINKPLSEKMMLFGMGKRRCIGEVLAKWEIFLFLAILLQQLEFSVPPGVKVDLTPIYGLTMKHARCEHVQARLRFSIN
The value called pIC50 is obtained by taking minus log10 of the concentration in mol/L.

{"Smiles string": "O=C1CCCn2nc(COc3ccccc3)cc21", "Tgt": "Cytochrome P450 1A2 (Homo sapiens)", "pIC50": 5.21}

// next item, pIC50 requested
Q: Requested read-out: pIC50. Entry: `CC1(C)CCn2nc(COc3ccccc3)cc2C1=O`
A: 5.14
